# Tested on: ATP;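 also: ATP exposure 15 min at 22 °C before imaging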
# experiment_summary: switch fluorescence ratio, 500 uM ATP over buffer (Cy3 cluster intensity, sum of 5 cycles each) (fold (ratio)); higher = stronger signal-on switching upon ATP binding; sequences stand for … in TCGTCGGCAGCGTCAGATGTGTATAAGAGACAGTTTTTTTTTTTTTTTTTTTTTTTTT…TC
# test_conditions: aptamer strand: ATP DNA aptamer (quencher-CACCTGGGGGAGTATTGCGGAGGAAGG + anchor), 100 nM annealed; ATP concentration: 500 uM
Below: a set of entries, each annotated with reported switch fluorescence ratio.
quantity_measured: switch fluorescence ratio

GGATTTTAGG
0.997
TATGATTGCG
1.01
AAAGGGAAAC
1.2
GTCGTTAGGG
0.963
ACAGATGAGC
1.01
AAGGATTAGA
0.987
TCTTTCTTTC
1.01
ATTTTGTGGA
0.987
CGCGATAGTA
1.27
TGTTATATGT
1.01
TTTACTTTGG
0.982
TTAGCGTGCT
0.994
TTATGGTAGC
0.995
AGTAATTTTG
1.01
TGGGGTTTAG
0.99
AGCTCTAAGA
1.02
ATGGGCTTTG
0.967
AAGCAGTCA
1.01
TCCAGACAGT
0.984
CGGGACATAG
0.964
TTTGATGGGT
0.993
